Record form. Attribute: max response. Fill in for each entry.
TEST SYSTEM: Nuclear receptor subfamily 1 group I member 2 (Rattus norvegicus) (UniProt Q9R1A7)
Sequence (Q9R1A7 whole entry, looked up): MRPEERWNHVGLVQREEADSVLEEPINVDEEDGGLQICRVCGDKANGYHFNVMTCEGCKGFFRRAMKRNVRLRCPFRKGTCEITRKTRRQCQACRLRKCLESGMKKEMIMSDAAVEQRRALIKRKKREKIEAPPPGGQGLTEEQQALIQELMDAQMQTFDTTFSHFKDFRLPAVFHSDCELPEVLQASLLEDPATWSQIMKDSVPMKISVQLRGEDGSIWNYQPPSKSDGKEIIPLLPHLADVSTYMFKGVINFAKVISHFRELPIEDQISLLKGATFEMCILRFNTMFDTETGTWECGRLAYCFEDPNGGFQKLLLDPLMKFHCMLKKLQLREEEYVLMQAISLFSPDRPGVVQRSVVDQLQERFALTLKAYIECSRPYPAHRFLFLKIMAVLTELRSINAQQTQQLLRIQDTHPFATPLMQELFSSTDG
EXPERIMENTAL DETAILS: qHTS assay for small molecule activators of the rat pregnane X receptor (rPXR) signaling pathway (AID 651751); note: 0% is about no effect
CONDITION LABEL: rPXR reporter cells, luciferase (One-Glo), 24 h
Answers are plain numbers, in %.

Solved entries (count: 2):
Cc1ccc2ccccc2c1[N+](=O)[O-] tested on Nuclear receptor subfamily 1 group I member 2 (Rattus norvegicus) (UniProt Q9R1A7) gave max response: -2.23

CCCC(C)CO (configuration not stated) tested on Nuclear receptor subfamily 1 group I member 2 (Rattus norvegicus) (UniProt Q9R1A7) gave max response: 0.794

Below are 7 compounds. Give each one its max response.
1. Cc1ccc(C#N)cc1
2. O=[N+]([O-])c1ccc(CCO)cc1
3. Fc1ccccc1
4. CC(C)CO
5. CC1CCCO1 (configuration not stated)
6. CCOc1ccc(NC(C)=O)cc1N
7. Cc1ccc(Br)cc1

Found:
1. 3.52
2. 0.179
3. 3.18
4. 1.55
5. -1.92
6. 9.33
7. 10.2

Below are 5 compounds. Give each one its max response.
1. C=CCCCC
2. N#CCc1ccccc1[N+](=O)[O-]
3. Nc1ccc(Cl)cc1[N+](=O)[O-]
4. Nc1ccccc1S(=O)(=O)O
5. C1CCOC1

Found:
1. 0.496
2. 8.31
3. 1.08
4. -0.431
5. 2.84
